Provide the reported pKi of each item.
Scale: pKi equals -log10([C]), with [C] in mol/L.

Please look at CCCNC(=O)C(=O)O [N-Propyl oxamate] and tell me its recorded pKi on L-lactate dehydrogenase A chain (Mus musculus).
2.76

Please look at CCNC(=O)C(=O)O [N-Ethyl oxamate] and tell me its recorded pKi on L-lactate dehydrogenase A chain (Mus musculus).
3.85

Please look at CCC(C)NC(=O)C(=O)O (stereo unspecified) [N-sec-Butyl oxamate] and tell me its recorded pKi on L-lactate dehydrogenase A chain (Mus musculus).
1.90

Please look at CC(C)CNC(=O)C(=O)O [N-Isobutyl oxamate] and tell me its recorded pKi on L-lactate dehydrogenase A chain (Mus musculus).
2.22

Please look at CCCCNC(=O)C(=O)O [N-Butyl oxamate] and tell me its recorded pKi on L-lactate dehydrogenase A chain (Mus musculus).
2.04

Please look at NC(=O)C(=O)O [carbamoylformic acid] and tell me its recorded pKi on L-lactate dehydrogenase A chain (Mus musculus).
4.10
